B1: NF2 (merlin) isoform 7, human, full length (507 aa, lacks exons 2-3 = isoform-1 residues 39-121; exon-16 C-terminus), P35240-4 (parent)
chain: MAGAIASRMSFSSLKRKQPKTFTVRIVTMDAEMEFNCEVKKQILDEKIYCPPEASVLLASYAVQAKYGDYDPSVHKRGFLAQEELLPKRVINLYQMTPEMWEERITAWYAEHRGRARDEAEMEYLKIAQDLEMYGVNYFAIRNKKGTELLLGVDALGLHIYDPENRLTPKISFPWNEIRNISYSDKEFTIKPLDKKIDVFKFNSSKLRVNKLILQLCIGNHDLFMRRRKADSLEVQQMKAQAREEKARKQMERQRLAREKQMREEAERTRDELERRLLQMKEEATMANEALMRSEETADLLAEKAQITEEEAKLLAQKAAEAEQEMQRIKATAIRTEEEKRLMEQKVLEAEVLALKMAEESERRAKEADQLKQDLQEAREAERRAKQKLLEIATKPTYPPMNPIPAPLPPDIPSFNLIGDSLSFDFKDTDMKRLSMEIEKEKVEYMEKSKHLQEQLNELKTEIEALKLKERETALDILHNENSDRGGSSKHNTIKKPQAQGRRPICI

variants of: B1; assay: reverse yeast two-hybrid deep mutational scan (rY2H-seq): NF2 isoform 7 mutant library as bait mated with wild-type prey strains; selection on medium lacking adenine for non-interacting pairs; NextSeq paired-end sequencing; enrichment vs …; settings: with KDM1A (lysine-specific histone demethylase 1A; the table's label AOF2 is a gene synonym of KDM1A), O60341; yeast diploids after mating (RBait_S3 x RPrey_S3), 30 °C, selection for reporter genes on NB agar; human ABL2 co-expressed as the kinase-dead K35M mutant …; HIGHER = WEAKER BINDING (the opposite of display enrichments): higher = stronger loss of interaction: reverse Y2H selects yeast in which bait and prey do NOT interact (growth without adenine), so a …; hits-only table; scale: rY2H score; numbering: uniprot, sequence starts at 1
propertyLabel: enrichment

Sample records with enrichment:
variantId	val
S414E	1.73
F173V	2.3
N482T	2.3
P407T	2.05
E282K	1.54

a: R228G
b: D271K
c: K15L
Query :: Order field: enrichment | Direction: descending (largest first) List each label, following the requested order.
Result :: a, b, c

1: F173S
2: L353W
3: L214E
4: R379E
5: L158I
Query :: Order these by enrichment, descending, and give the full ranking. Write the labels, ordered according to the request.
Result :: 3, 4, 1, 5, 2

I: E325T
II: R341T
Query :: Please tell me which of the two, I or II , has the higher reported enrichment value. Identify your pick by its label.
Result :: I

P: L389K
Q: L301E
R: P163K
Query :: Form: Sort by [enrichment] Order [ ascending ] In your reply, arrange the labels in the requested order.
Result :: P, Q, R
(P: 2.15, Q: 4.8, R: 7.04)
